# assayedSystem: D3 (Homo sapiens)
# Sequence (P35462 whole entry): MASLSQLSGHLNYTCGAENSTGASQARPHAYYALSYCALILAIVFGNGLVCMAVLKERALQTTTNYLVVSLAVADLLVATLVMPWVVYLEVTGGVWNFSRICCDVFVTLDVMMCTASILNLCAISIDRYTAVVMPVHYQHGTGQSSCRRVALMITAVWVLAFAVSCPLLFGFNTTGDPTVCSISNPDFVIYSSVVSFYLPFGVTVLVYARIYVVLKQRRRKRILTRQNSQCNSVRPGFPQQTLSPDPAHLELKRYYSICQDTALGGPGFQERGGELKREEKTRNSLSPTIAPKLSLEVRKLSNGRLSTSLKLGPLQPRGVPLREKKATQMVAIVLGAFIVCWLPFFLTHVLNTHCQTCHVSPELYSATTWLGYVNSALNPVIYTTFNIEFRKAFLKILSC
readout: Ki (nM)

[
  {
    "compound": "Fc1cc(F)cc(CN2CCC(Nc3ncnc4sc(Cl)cc34)CC2)c1.O=C(O)/C=C\\C(=O)O",
    "readout": "Ki",
    "recordedResult": 140
  },
  {
    "compound": "Fc1cccc(CN2CCC(Nc3ncnc4sc(Cl)cc34)CC2)c1.O=C(O)/C=C\\C(=O)O",
    "readout": "Ki",
    "recordedResult": 26
  },
  {
    "compound": "N#Cc1cccc(CN2CCC(Nc3ncnc4sc(Cl)cc34)CC2)c1 [Example B43, monomaleate]",
    "readout": "Ki",
    "recordedResult": 1300
  }
]

----------
# procedureSummary: HLM T1/2
# conditionNotes: human, liver microsomes
Where a name gives a salt, the structure may show the parent alone.

[
  {
    "molecule": "CC(NCCCNc1ncnc2sc3c(c12)CCCC3)c1cccc(F)c1 (stereo not shown) [Example B26, dihydrochloride]",
    "readingQualifier": "<",
    "half-life, min": 15
  },
  {
    "molecule": "CS(=O)(=O)c1cccc(CN2CCC(Nc3ncnc4sc(Cl)cc34)CC2)c1",
    "readingQualifier": "=",
    "half-life, min": 27
  },
  {
    "molecule": "Fc1cccc(CNCCCNc2ncnc3sc4c(c23)CCCC4)c1 [Example B25, dihydrochloride]",
    "readingQualifier": "<",
    "half-life, min": 15
  },
  {
    "molecule": "Fc1cccc(CN2CCC(Nc3ncnc4sc(Cl)cc34)CC2)c1 [Example B41, dihydrochloride]",
    "readingQualifier": "=",
    "half-life, min": 10
  },
  {
    "molecule": "CC(c1cccc(F)c1)N1CCC(Nc2ncnc3sccc23)CC1 (stereo not shown) [Example B12, dihydrochloride]",
    "readingQualifier": "=",
    "half-life, min": 11
  },
  {
    "molecule": "Fc1cc(F)cc(CN2CCC(Nc3ncnc4sc(Cl)cc34)CC2)c1 [Example B33, dihydrochloride]",
    "readingQualifier": "=",
    "half-life, min": 13
  },
  {
    "molecule": "c1ccc(CN2CCC(Nc3ncnc4scc(-c5ccccc5)c34)CC2)cc1",
    "readingQualifier": "<",
    "half-life, min": 15
  },
  {
    "molecule": "N#Cc1cccc(CN2CCC(Nc3ncnc4sc(Cl)cc34)CC2)c1 [Example B43, monomaleate]",
    "readingQualifier": "=",
    "half-life, min": 22
  },
  {
    "molecule": "CC(c1cccc(F)c1)N1CCC(Nc2ncnc3sc4c(c23)CCCC4)CC1 (stereo not shown) [Example B10, dihydrochloride]",
    "readingQualifier": "<",
    "half-life, min": 15
  },
  {
    "molecule": "c1ccc(CN2CCC(Nc3ncnc4sc5c(c34)CCCC5)CC2)cc1",
    "readingQualifier": "<",
    "half-life, min": 15
  },
  {
    "molecule": "CC(C)Cc1cc2c(NC3CCN(C(C)c4c(F)cccc4F)CC3)ncnc2s1 (stereo not shown) [Example B20, dihydrochloride]",
    "readingQualifier": "<",
    "half-life, min": 15
  },
  {
    "molecule": "CNC(=O)c1cccc(CN2CCC(Nc3ncnc4sc(Cl)cc34)CC2)c1",
    "readingQualifier": "=",
    "half-life, min": 34
  },
  {
    "molecule": "Cc1c(Cl)sc2ncnc(NC3CCN(Cc4ccccc4C#N)CC3)c12 [Example B39, dihydrochloride]",
    "readingQualifier": "<",
    "half-life, min": 15
  },
  {
    "molecule": "Cc1sc2ncnc(NC3CCN(C(C)c4cccc(F)c4)CC3)c2c1C (stereo not shown) [Example B13, dihydrochloride]",
    "readingQualifier": "<",
    "half-life, min": 15
  },
  {
    "molecule": "CC(C)c1cc2c(NC3CCN(Cc4cc(F)cc(F)c4)CC3)ncnc2s1 [Example B31, dihydrochloride]",
    "readingQualifier": "=",
    "half-life, min": 8
  },
  {
    "molecule": "CC(C)Cc1cc2c(NC3CCN(C(C)c4cc(F)cc(F)c4)CC3)ncnc2s1 (stereo not shown) [Example B18, dihydrochloride]",
    "readingQualifier": "=",
    "half-life, min": 7
  }
]
